read-out: solute carrier (SLC22A1), SLC22A1 (gene 6580); experiment: LTEA_HepaRG_SLC22A1: Life Technologies and Expression Analysis (LTEA) Assay for solute carrier (SLC22A1) using HepaRG (AID 2283524); conditions: mRNA level, 48 h; actives raise or lower the signal
Activity calls are given as the source filed them. The calls were made as follows: active = hit-call score of the fitted dose curve at least 0.9, where 1 is the maximum; inactive = score below 0.9.
Outcomes: active, inactive

>  <Compound>
CC#C[C@]1(O)CC[C@H]2[C@@H]3CCC4=CC(=O)CCC4=C3[C@@H](c3ccc(N(C)C)cc3)C[C@@]21C

>  <Cat>
active

$$$$
>  <Compound>
CC(O)CO (stereo unspecified)

>  <Cat>
inactive

$$$$
>  <Compound>
CCCCC(CC)COC(=O)CCCCC(=O)OCC(CC)CCCC (stereo unspecified)

>  <Cat>
inactive

$$$$
>  <Compound>
OCCC(F)(F)C(F)(F)C(F)(F)C(F)(F)C(F)(F)C(F)(F)F

>  <Cat>
inactive

$$$$
>  <Compound>
CCCOC(=O)c1ccc(O)cc1

>  <Cat>
inactive

$$$$
>  <Compound>
Oc1cccc(O)c1

>  <Cat>
inactive

$$$$
>  <Compound>
C[C@@H]1C[C@H]2[C@@H]3CCC4=CC(=O)C=C[C@]4(C)[C@@]3(F)[C@@H](O)C[C@]2(C)[C@@]1(O)C(=O)COP(=O)(O)O

>  <Cat>
inactive

$$$$
>  <Compound>
O=[N+]([O-])c1ccc(O)cc1

>  <Cat>
inactive

$$$$
>  <Compound>
CC(C)(C)c1ccc(O)c(C(C)(C)C)c1

>  <Cat>
inactive

$$$$
>  <Compound>
COCC(C)O (stereo unspecified)

>  <Cat>
inactive

$$$$
>  <Compound>
O=C(OCCOCCOC(=O)c1ccccc1)c1ccccc1

>  <Cat>
inactive

$$$$
>  <Compound>
CCCCCCCCC(=O)O

>  <Cat>
inactive

$$$$
>  <Compound>
N#C[C@@H]1CC(F)(F)CN1C(=O)CNC1CC2CCC(C1)N2c1ncccn1 (stereo partly specified)

>  <Cat>
inactive

$$$$
>  <Compound>
OCCC(F)(F)C(F)(F)C(F)(F)C(F)(F)C(F)(F)C(F)(F)C(F)(F)C(F)(F)F

>  <Cat>
inactive

$$$$
>  <Compound>
CCOC(=O)CC(O)(CC(=O)OCC)C(=O)OCC

>  <Cat>
inactive

$$$$
>  <Compound>
COc1ccc([N+](=O)[O-])cc1N

>  <Cat>
inactive

$$$$
>  <Compound>
c1ccc2cc3c(ccc4ccccc43)cc2c1

>  <Cat>
active

$$$$
>  <Compound>
CC(C)(C)c1cccc(C(C)(C)C)c1O

>  <Cat>
inactive

$$$$
>  <Compound>
CC1=C(/C=C/C(C)=C/C=C/C(C)=C/C(=O)O)C(C)(C)CCC1

>  <Cat>
active

$$$$
>  <Compound>
NC(=O)N1C(=O)C(C(=O)c2cc(Cl)cs2)c2cc(F)c(Cl)cc21 (stereo unspecified)

>  <Cat>
active

$$$$
>  <Compound>
CCC(C)(C)C1CCC(O)CC1 (stereo unspecified)

>  <Cat>
inactive

$$$$
>  <Compound>
O=C(O)Cc1cc(I)c(Oc2cc(I)c(O)c(I)c2)c(I)c1

>  <Cat>
active

$$$$
>  <Compound>
COC(=O)CCCCC(=O)OC

>  <Cat>
inactive

$$$$
>  <Compound>
OC1CCCCC1

>  <Cat>
inactive

$$$$
>  <Compound>
O=c1c(-c2ccc(O)cc2)coc2cc(O)ccc12

>  <Cat>
inactive

$$$$
>  <Compound>
ClC1=C(Cl)C(Cl)(Cl)C(Cl)=C1Cl

>  <Cat>
inactive

$$$$
>  <Compound>
CN1CCN(c2ccccc2/C=C2\SCCN(c3ccc(Cl)c(Cl)c3)C2=O)CC1

>  <Cat>
active

$$$$
>  <Compound>
CCCOc1sc(C(=O)N2CCC(c3cc(CN)ccc3F)CC2)c(C)c1Br

>  <Cat>
inactive

$$$$
>  <Compound>
CC(C)(C)c1cc(C(C)(C)C)c(O)c(C(C)(C)C)c1

>  <Cat>
inactive

$$$$
>  <Compound>
CN(C)C=O

>  <Cat>
inactive

$$$$
>  <Compound>
CC(C)CCCCCCOC(=O)CCCCC(=O)OCCCCCCC(C)C

>  <Cat>
inactive

$$$$

---

biological target: rat Adrenergic, Alpha 1, Non-selective Receptor (Adra1), Adra1a (gene 29412); assay: NVS_GPCR_rAdra1_NonSelective: NovaScreen (NVS) G Protein-Coupled Receptor Assay for rat Adrenergic, Alpha 1, Non-selective Receptor (Adra1) (AID 2283289)
Inconclusive results are not listed. Calls of active or inactive are those of the source. Rule for the calls: active = hit-call score of the fitted dose curve at least 0.9, where 1 is the maximum; inconclusive = response in the unintended direction; inactive = score below 0.9.
Outcomes: class 1 = active, class 0 = inactive

>  <Smiles Record>
CCCCCCCCCCCCc1ccccc1S(=O)(=O)O

>  <Cat>
class 1

$$$$
>  <Smiles Record>
CCCOc1sc(C(=O)N2CCC(c3cc(CN)ccc3F)CC2)c(C)c1Br

>  <Cat>
class 1

$$$$
>  <Smiles Record>
O=C(O)Cc1cc(I)c(Oc2cc(I)c(O)c(I)c2)c(I)c1

>  <Cat>
class 0

$$$$
>  <Smiles Record>
CC(=O)NC1(c2cccc(F)c2)CCN(CC[C@@]2(c3ccc(Cl)c(Cl)c3)CN(c3ccccc3)C(=O)CO2)CC1

>  <Cat>
class 1

$$$$
>  <Smiles Record>
CCCCCCCCC(=O)O

>  <Cat>
class 0

$$$$
>  <Smiles Record>
NC(=O)N(O)[C@@H]1C=C[C@H](Oc2cccc(Oc3ccc(F)cc3)c2)C1

>  <Cat>
class 0

$$$$

---

read-out: MicroRNA 122 (MIR122), gene 406906; assay: LTEA_HepaRG_MIR122: Life Technologies and Expression Analysis (LTEA) Assay for MicroRNA 122 (MIR122) using HepaRG (AID 2283516); settings: mRNA level, 48 h; actives raise or lower the signal; also: the transcript read is the microRNA miR-122
Calls of active or inactive are those of the source. Rule for the calls: active = hit-call score of the fitted dose curve at least 0.9, where 1 is the maximum; inactive = score below 0.9.
Outcomes: Yes = active, No = inactive

>  <Compound>
CN1CCN(c2ccccc2/C=C2\SCCN(c3ccc(Cl)c(Cl)c3)C2=O)CC1

>  <Cat>
Yes

$$$$
>  <Compound>
CCCCC(CC)COC(=O)CCCCC(=O)OCc1ccccc1 (configuration not stated)

>  <Cat>
No

$$$$
>  <Compound>
c1ccc2cc3c(ccc4ccccc43)cc2c1

>  <Cat>
Yes

$$$$
>  <Compound>
CC#C[C@]1(O)CC[C@H]2[C@@H]3CCC4=CC(=O)CCC4=C3[C@@H](c3ccc(N(C)C)cc3)C[C@@]21C

>  <Cat>
Yes

$$$$
>  <Compound>
NC(=O)N(O)[C@@H]1C=C[C@H](Oc2cccc(Oc3ccc(F)cc3)c2)C1

>  <Cat>
Yes

$$$$
>  <Compound>
CCCCCCCC(=O)O

>  <Cat>
No

$$$$
>  <Compound>
CCC(=C(c1ccc(O)cc1)c1ccc(OCCN(C)C)cc1)c1ccccc1

>  <Cat>
Yes

$$$$
>  <Compound>
CCN(CC)CCNc1ccc(CNC=O)c2sc3ccc(OC)cc3c(=O)c12

>  <Cat>
Yes

$$$$
>  <Compound>
CC(C)CCCCCCOC(=O)CCCCC(=O)OCCCCCCC(C)C

>  <Cat>
No

$$$$
>  <Compound>
COc1ccc([N+](=O)[O-])cc1N

>  <Cat>
No

$$$$
>  <Compound>
c1ccc2c(c1)ccc1ccccc12

>  <Cat>
No

$$$$
>  <Compound>
Cc1cc(C)c(O)c(C)c1

>  <Cat>
No

$$$$

---

target: human Adrenergic, Alpha 2c Receptor (Adra2C), ADRA2C (gene 152); assay: NVS_GPCR_hAdra2C: NovaScreen (NVS) G Protein-Coupled Receptor Assay for human Adrenergic, Alpha 2c Receptor (Adra2C) (AID 2283259)
Records with an inconclusive call do not appear. The source made the active and inactive calls. Rule for the calls: active = hit-call score of the fitted dose curve at least 0.9, where 1 is the maximum; inconclusive = response in the unintended direction; inactive = score below 0.9.
Outcomes: class 1 for active, class 0 for inactive

>  <Compound>
CCCOc1sc(C(=O)N2CCC(c3cc(CN)ccc3F)CC2)c(C)c1Br

>  <Target Desc>
human Adrenergic, Alpha 2c Receptor (Adra2C), ADRA2C (gene 152)

>  <Cat>
class 1

$$$$
>  <Compound>
CCC(=C(c1ccc(O)cc1)c1ccc(OCCN(C)C)cc1)c1ccccc1

>  <Target Desc>
human Adrenergic, Alpha 2c Receptor (Adra2C), ADRA2C (gene 152)

>  <Cat>
class 1

$$$$
>  <Compound>
CC[C@H](c1ccc(O)cc1)[C@@H](CC)c1ccc(O)cc1

>  <Target Desc>
human Adrenergic, Alpha 2c Receptor (Adra2C), ADRA2C (gene 152)

>  <Cat>
class 0

$$$$
>  <Compound>
NC(=O)N1C(=O)C(C(=O)c2cc(Cl)cs2)c2cc(F)c(Cl)cc21 (centres undefined)

>  <Target Desc>
human Adrenergic, Alpha 2c Receptor (Adra2C), ADRA2C (gene 152)

>  <Cat>
class 1

$$$$
